FYI, the data here is from paper PMC5540273.

System: MEK1
Construct: gene MAP2K1
Conditions: concentration: 1 μM, replicates: in singlicate; n = 1;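 further: KINOMEscan kinase panel screen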
PARAMETER MEASURED: %Inh (%)
Only the number, expressed in %, is required.

Query Cc1c(Cn2c(C)nn3c(=O)cc(N4CCO[C@H](C)C4)nc23)cccc1C(F)(F)F [GSK2373690] on MEK1; %Inh returned: 0

// %Inh (MEK1) for O=c1cc(N2CCOCC2)nc2n(Cc3ccc(F)c(Cl)c3)ccn12 [GSK2297099] = 0

* * *

Form field: %Inh (one value per entry).
Test system: PIP5K1A
Settings: concentration: 1 μM, replicates: in singlicate; n = 1
Only the number, expressed in %, is required.

Known %Inh results, listed for orientation:
>>> measurement("Cc1ccc(-c2ccc3c(ccc4sc5c(c43)NC[C@@H](C)N=C5N(C)C)n2)cn1")
0
>>> measurement("Nc1ncnc2c1ncn2-c1cccc2ccccc12 [SKF-97184]")
0
>>> measurement("COC(=O)c1c(-c2ccccc2)c2cc(Br)ccc2c(=O)n1Cc1ccc(S(C)(=O)=O)cc1")
19
>>> measurement("O=C(Nc1n[nH]c2cc(-c3ccccc3F)ccc12)C1CC1 [SB-733371]")
32
>>> measurement("CCS(=O)(=O)c1ccc(OC)c(Nc2ncc(-c3ccc(F)cc3)o2)c1.Cl [GW591947]")
0
>>> measurement("Cc1nc(N(C)[C@H]2CN(C(=O)CC#N)CC[C@H]2C)c2cc[nH]c2n1")
0
>>> measurement("CN(C)c1cc(-c2ccc3c(N)n[nH]c3c2)nc(N)n1 [GSK2219329]")
0
>>> measurement("CCc1ccc(-c2ccc3c(c2)-c2nn(C)cc2S(=O)(=O)N3C)cc1")
0

Reading of %Inh for COc1ccc(Nc2nccc(N3CCC(NS(=O)(=O)c4ccc(NC(C)=O)cc4)C3)n2)cc1 (stereo not shown) [GSK1379729] with PIP5K1A: 0
